system: wheat plants; assay: Phytotoxicity (percentage of leaf necrosis) on wheat plants, Erysiphe graminis test; type: in vivo; details: 125 ppm, 0 = completely healthy plant, 100 = completely necrotized plant
# Phytotoxicity % N.F. values compiled below
Numbers only here, please. The scale is %.

CCN(C)C=Nc1cc(C)c(Oc2cccc(C(F)(F)F)c2)cc1C
35

What is its Phytotoxicity % N.F. for wheat plants? Entry: `Cc1cc(Oc2cccc(OC(F)(F)F)c2)c(C)cc1N=CN(C)C`
30

What is its Phytotoxicity % N.F. for wheat plants? Entry: `CCN(C)C=Nc1cc(C)c(Sc2cccc(OC(F)(F)C(F)F)c2)cc1C`
0

What is its Phytotoxicity % N.F. for wheat plants? Entry: `Cc1cc(Oc2cccc(C(F)(F)F)c2)c(C)cc1N=CN(C)C`
25

What is its Phytotoxicity % N.F. for wheat plants? Entry: `CCN(C)C=Nc1cc(C)c(Sc2cccc(OCC(F)(F)F)c2)cc1C`
0

What is its Phytotoxicity % N.F. for wheat plants? Entry: `CCN(C)C=Nc1cc(C)c(Sc2cccc(OCC(F)(F)C(F)F)c2)cc1C`
0

What is its Phytotoxicity % N.F. for wheat plants? Entry: `Cc1cc(Oc2cccc(OCC(F)(F)F)c2)c(C)cc1N=CN(C)C`
30

What is its Phytotoxicity % N.F. for wheat plants? Entry: `CCN(C)C=Nc1cc(C)c(Sc2cccc(OC(F)F)c2)cc1C`
0

What is its Phytotoxicity % N.F. for wheat plants? Entry: `Cc1cc(Sc2cccc(C(F)(F)F)c2)c(C)cc1N=CN(C)C`
0

What is its Phytotoxicity % N.F. for wheat plants? Entry: `CCN(C)C=Nc1cc(C)c(Sc2cccc(OCC(F)(F)C(F)(F)F)c2)cc1C`
0

====

# Phytotoxicity % N.F. values compiled below
system: wheat plants; assay: Phytotoxicity (percentage of leaf necrosis) on wheat plants, Puccinia recondita test; assay type: in vivo; conditions: 125 ppm, 0 = completely healthy plant, 100 = completely necrotized plant
Numbers only here, please. The scale is %.

A selection of reference data follows.
Cc1cc(Oc2cccc(C(F)(F)F)c2)c(C)cc1N=CN(C)C [CR-1]
26
Cc1cc(Oc2cccc(OCC(F)(F)F)c2)c(C)cc1N=CN(C)C [CR-5]
25
CCN(C)C=Nc1cc(C)c(Sc2cccc(OCC(F)(F)F)c2)cc1C [Compound 15]
0
CCN(C)C=Nc1cc(C)c(Sc2cccc(OCC(F)(F)C(F)(F)F)c2)cc1C [Compound 23]
0
CCN(C)C=Nc1cc(C)c(Oc2cccc(C(F)(F)F)c2)cc1C [CR-3]
33
Cc1cc(Sc2cccc(C(F)(F)F)c2)c(C)cc1N=CN(C)C [CR-2]
0
CCN(C)C=Nc1cc(C)c(Sc2cccc(OC(F)(F)C(F)F)c2)cc1C [Compound 2]
0
CCN(C)C=Nc1cc(C)c(Sc2cccc(OC(F)F)c2)cc1C [Compound 1]
0

Which Phytotoxicity % N.F. value belongs to Cc1cc(Oc2cccc(OC(F)(F)F)c2)c(C)cc1N=CN(C)C [CR-4] ?
30

Which Phytotoxicity % N.F. value belongs to CCN(C)C=Nc1cc(C)c(Sc2cccc(OCC(F)(F)C(F)F)c2)cc1C [Compound 19] ?
0

====

system: wheat plants; experiment: Phytotoxicity (percentage of leaf necrosis) on wheat plants, Puccinia recondita test; type: in vivo; conditions: 30 ppm, 0 = completely healthy plant, 100 = completely necrotized plant
# Phytotoxicity % N.F. values compiled below
Numbers only here, please. The scale is %.

A selection of reference data follows.
CCN(C)C=Nc1cc(C)c(Sc2cccc(OC(F)F)c2)cc1C
0
Cc1cc(Oc2cccc(OC(F)(F)F)c2)c(C)cc1N=CN(C)C
20
CCN(C)C=Nc1cc(C)c(Sc2cccc(OCC(F)(F)F)c2)cc1C
0
CCN(C)C=Nc1cc(C)c(Sc2cccc(OC(F)(F)C(F)F)c2)cc1C
0
CCN(C)C=Nc1cc(C)c(Sc2cccc(OCC(F)(F)C(F)(F)F)c2)cc1C
0

Which Phytotoxicity % N.F. value belongs to `Cc1cc(Sc2cccc(C(F)(F)F)c2)c(C)cc1N=CN(C)C` ?
0

Which Phytotoxicity % N.F. value belongs to `CCN(C)C=Nc1cc(C)c(Sc2cccc(OCC(F)(F)C(F)F)c2)cc1C` ?
0

Which Phytotoxicity % N.F. value belongs to `Cc1cc(Oc2cccc(C(F)(F)F)c2)c(C)cc1N=CN(C)C` ?
14

Which Phytotoxicity % N.F. value belongs to `CCN(C)C=Nc1cc(C)c(Oc2cccc(C(F)(F)F)c2)cc1C` ?
21

Which Phytotoxicity % N.F. value belongs to `Cc1cc(Oc2cccc(OCC(F)(F)F)c2)c(C)cc1N=CN(C)C` ?
15

====

system: Erysiphe graminis; assay: Fungicidal activity in preventive application (5 days) against Erysiphe graminis on wheat; format: in vivo; conditions: 30 ppm; parts treated directly (T); scale 100 = healthy plant, 0 = completely infected plant
ASSAY_READOUT: Activity P5, T (%)
Numbers only here, please. The scale is %.

A selection of reference data follows.
Cc1cc(Sc2cccc(C(F)(F)F)c2)c(C)cc1N=CN(C)C [CR-2]
78
CCN(C)C=Nc1cc(C)c(Sc2cccc(OCC(F)(F)C(F)F)c2)cc1C [Compound 19]
100
CCN(C)C=Nc1cc(C)c(Sc2cccc(OCC(F)(F)C(F)(F)F)c2)cc1C [Compound 23]
100
Cc1cc(Oc2cccc(C(F)(F)F)c2)c(C)cc1N=CN(C)C [CR-1]
90
CCN(C)C=Nc1cc(C)c(Sc2cccc(OC(F)(F)C(F)F)c2)cc1C [Compound 2]
100

Which Activity P5, T value belongs to Cc1cc(Oc2cccc(OCC(F)(F)F)c2)c(C)cc1N=CN(C)C [CR-5] ?
70

Which Activity P5, T value belongs to CCN(C)C=Nc1cc(C)c(Sc2cccc(OC(F)F)c2)cc1C [Compound 1] ?
100

Which Activity P5, T value belongs to CCN(C)C=Nc1cc(C)c(Oc2cccc(C(F)(F)F)c2)cc1C [CR-3] ?
95

Which Activity P5, T value belongs to CCN(C)C=Nc1cc(C)c(Sc2cccc(OCC(F)(F)F)c2)cc1C [Compound 15] ?
100

Which Activity P5, T value belongs to Cc1cc(Oc2cccc(OC(F)(F)F)c2)c(C)cc1N=CN(C)C [CR-4] ?
75
